- experiment: S. pombe growth modifiers, basal conditions – strain 972, OD600, 24 h, no modulator, primary screen (AID 1090);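 also: basal condition with compound alone and no growth modifier present; test concentration not given here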
- conditionParameters: S. pombe 972 growth; higher = more signal, called active from +8 up or from −8 down unless noted
The label depends only on z-score: criterion met if it is at least -0.6, criterion not met if it is smaller.

>>> labelclass("CCc1cc2c(nc1CC)CCN(CCC(C)=NOC)C2")
"criterion not met"
>>> labelclass("COC(=O)NCC=Cc1nc(CCC=CC(=O)O[C@H]2CC3CC(=O)O[C@@H](C=CCC(C)C)C[C@@H]4CC[C@H](C)[C@@H](C[C@@H](OC)C[C@H](C2)O3)O4)co1")
"criterion not met"
>>> labelclass("C=C(CC1(CNP(=O)(c2ccccc2)c2ccccc2)CC1)c1ccccc1")
"criterion met"
>>> labelclass("c1ccc(-c2cc3c(nc2-c2ccccc2)CCNC3)cc1")
"criterion met"
>>> labelclass("CCCc1cc2c(n1CCO)C(C)C1CN(C(=O)c3ccccc3)C(C)(C(=O)OC)C21 (stereo not drawn)")
"criterion met"
>>> labelclass("OCc1ccc(C2=CC(C3CC3)N(Cc3sc4ccccc4c3Cl)CC2)cc1 (stereo not drawn)")
"criterion not met"
>>> labelclass("O=P(c1ccccc1)(c1ccccc1)N1CC2(CC2)CC(O)(c2ccccc2)C1 (stereo not drawn)")
"criterion not met"
>>> labelclass("COC(=O)C1(C)C=C2C(=C(C)C(=O)C2C)CN1 (stereo not drawn)")
"criterion met"
>>> labelclass("COC(=O)[C@H]1C(=O)c2ccccc2O[C@@](C(=O)OC)(c2ccccc2)[C@@H]1c1ccccc1")
"criterion not met"
>>> labelclass("COC(=O)[C@@]1(Cc2ccccc2)[C@H]2c3cc(C(=O)N(C)C)n(C)c3C[C@H]2CN1C(=O)c1ccccc1")
"criterion met"
>>> labelclass("COC(=O)[C@@]1(Cc2ccccc2)[C@H]2c3cc(C(=O)N(C)C)[nH]c3C[C@H]2CN1C(=O)c1ccccc1")
"criterion met"
>>> labelclass("COC(=O)[C@H]1[C@@H](O)[C@@]2(O)c3c(OC)cc(OC)cc3O[C@@]2(c2ccc(OC)cc2)[C@@H]1c1ccccc1")
"criterion not met"
>>> labelclass("CCOC(=O)[C@H]1CC=C2C(=O)Oc3ccc(Br)cc3[C@@H]21")
"criterion not met"
>>> labelclass("C[C@H]1O[C@H]2C3=C(C(=O)[C@@H]4O[C@@H]4[C@@H]3O)[C@@H]1[C@@H]1[C@@H](C)OC=C3[C@@H](O)[C@H]4O[C@H]4C(=O)[C@]312")
"criterion met"
>>> labelclass("C=C(CC1(C(C)NP(=O)(c2ccccc2)c2ccccc2)CC1)c1ccccc1 (stereo not drawn)")
"criterion not met"
>>> labelclass("CCCC=C(CCC)[C@@H](NP(=O)(c1ccccc1)c1ccccc1)c1ccccc1")
"criterion met"
>>> labelclass("CCOC(=O)[C@H]1CC=C2C(=O)Oc3ccccc3[C@@H]21")
"criterion not met"
>>> labelclass("CCCc1cc2c(n1Cc1ccco1)C(C)C1CN(C(=O)c3ccccc3)C(C)(C(=O)OC)C21 (stereo not drawn)")
"criterion met"

====

- assayedSystem: Dihydroorotate dehydrogenase (quinone), mitochondrial (Plasmodium falciparum (isolate 3D7))
- experiment: inhibition of P. falciparum DHODH – biochemical, C-terminal His tag, absorbance 600 nm, primary screen (AID 1175);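 also: recombinant parasite enzyme with a five histidine tag at its C terminus; test concentration not given here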
- conditionParameters: PfDHODH enzyme, DCIP absorbance 600 nm; higher = more signal, called active from +8 up or from −8 down unless noted
Category | rule: reported composite z-score within range, see low-valued (below -0.5), mid-valued (-0.5 to below 0.1), high-valued (0.1 or more)

>>> labelclass("O=P(c1ccccc1)(c1ccccc1)N1CC2(CC2)CC(O)(c2ccccc2)C1 (stereo not drawn)")
"mid-valued"
>>> labelclass("COC(=O)[C@@]1(Cc2ccccc2)[C@H]2c3cc(C(=O)N(C)C)[nH]c3C[C@H]2CN1C(=O)c1ccccc1")
"mid-valued"
>>> labelclass("CCCc1cc2c(n1Cc1ccc(C)cc1)C(C)C1CN(C(=O)c3ccccc3)C(C)(C(=O)OC)C21 (stereo not drawn)")
"low-valued"
>>> labelclass("CCCC=C(CCC)[C@@H](NP(=O)(c1ccccc1)c1ccccc1)c1ccccc1")
"mid-valued"
>>> labelclass("CCCc1cc2c(n1CCO)C(C)C1CN(C(=O)c3ccccc3)C(C)(C(=O)OC)C21 (stereo not drawn)")
"mid-valued"
>>> labelclass("CCc1cc2c(nc1CC)CCN(CCC(C)=NOC)C2")
"high-valued"
>>> labelclass("C=C(CC1(C(C)NP(=O)(c2ccccc2)c2ccccc2)CC1)c1ccccc1 (stereo not drawn)")
"low-valued"
>>> labelclass("CCOC(=O)[C@H]1CC=C2C(=O)Oc3ccccc3[C@@H]21")
"high-valued"
>>> labelclass("CCCC[C@@H]1C[C@H]1[C@@H](NP(=O)(c1ccccc1)c1ccccc1)c1ccc(Cl)cc1")
"low-valued"
>>> labelclass("C=C(CC1(CNP(=O)(c2ccccc2)c2ccccc2)CC1)c1ccccc1")
"high-valued"
>>> labelclass("C[C@@H]1Cc2c(cnc3c2CN(C)CC3)CO1")
"low-valued"
>>> labelclass("CN1CCc2nc(CO)c(CO)cc2C1")
"high-valued"
>>> labelclass("COC(=O)[C@H]1[C@@H](O)[C@@]2(O)c3c(OC)cc(OC)cc3O[C@@]2(c2ccc(OC)cc2)[C@@H]1c1ccccc1")
"mid-valued"
>>> labelclass("C[C@H]1O[C@H]2C3=C(C(=O)[C@@H]4O[C@@H]4[C@@H]3O)[C@@H]1[C@@H]1[C@@H](C)OC=C3[C@@H](O)[C@H]4O[C@H]4C(=O)[C@]312")
"low-valued"
>>> labelclass("CCCc1cc2c(n1Cc1ccco1)C(C)C1CN(C(=O)c3ccccc3)C(C)(C(=O)OC)C21 (stereo not drawn)")
"mid-valued"
>>> labelclass("CCCc1cc2c(n1Cc1cccc(Cl)c1)C(C)C1CN(C(=O)c3ccccc3)C(C)(C(=O)OC)C21 (stereo not drawn)")
"mid-valued"
>>> labelclass("c1ccc(-c2cc3c(nc2-c2ccccc2)CCNC3)cc1")
"high-valued"

====

- experiment: plasmodial surface anion channel blockers, osmotic lysis – cell-based, P. falciparum Indochina, OD700, 18 h, primary screen (AID 1157)
- conditionParameters: P. falciparum Indochina infected erythrocytes, osmotic lysis OD700, 18 h; higher = more signal, called active from +8 up or from −8 down unless noted
The label depends only on z-score: yes (1) if it is at least 0.5, no (0) if it is smaller.

>>> labelclass("OCc1ccc(C2=CC(C3CC3)N(Cc3sc4ccccc4c3Cl)CC2)cc1 (stereo not given)")
"yes (1)"
>>> labelclass("CCCc1cc2c(n1Cc1cccc(Cl)c1)C(C)C1CN(C(=O)c3ccccc3)C(C)(C(=O)OC)C21 (stereo not given)")
"no (0)"
>>> labelclass("O=P(c1ccccc1)(c1ccccc1)N1CC2(CC2)CC(O)(c2ccccc2)C1 (stereo not given)")
"yes (1)"
>>> labelclass("OCc1ccc(C2=CC(c3cccs3)N(Cc3cccc(OC(F)(F)F)c3)CC2)cc1 (stereo not given)")
"yes (1)"

====

- experiment: growth of efflux-deficient E. coli DRC39 – strain DRC39, OD650, 48 h, E. coli filamentation inducers, primary screen (AID 1179);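 also: screen aims at cell division blockers that make cells filament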
- conditionParameters: E. coli DRC39 delta-acrAB growth, higher = more signal, called active from +8 up or from −8 down unless noted
Items are presented alongside their recorded z-score.
readoutKind: z-score

>>> datavalue("c1ccc(-c2cc3c(nc2-c2ccccc2)CCNC3)cc1")
-0.29
>>> datavalue("CCOC(=O)[C@H]1CC=C2C(=O)Oc3ccccc3[C@@H]21")
-1.11
>>> datavalue("C=C(CC1(CNP(=O)(c2ccccc2)c2ccccc2)CC1)c1ccccc1")
0.249
>>> datavalue("CCCc1cc2c(n1Cc1ccco1)C(C)C1CN(C(=O)c3ccccc3)C(C)(C(=O)OC)C21 (stereo not given)")
-0.951
>>> datavalue("COC(=O)[C@@]1(Cc2ccccc2)[C@H]2c3cc(C(=O)N(C)C)[nH]c3C[C@H]2CN1C(=O)c1ccccc1")
0.0889

====

- experiment: compound effects on hepatocellular carcinoma cell viability – HepG2, calcein-AM fluorescence, 48 h, basal, profiling panel (AID 1164); also: test concentration not given here
- conditionParameters: higher = more signal
readoutKind: z-score

>>> datavalue("O=P(c1ccccc1)(c1ccccc1)N1CC2(CC2)CC(O)(c2ccccc2)C1 (stereo not given)")
-1.15
>>> datavalue("CCCC=C(CCC)[C@@H](NP(=O)(c1ccccc1)c1ccccc1)c1ccccc1")
0.559
>>> datavalue("COC(=O)[C@@]1(Cc2ccccc2)[C@H]2c3cc(C(=O)N(C)C)n(C)c3C[C@H]2CN1C(=O)c1ccccc1")
-0.189
>>> datavalue("COC(=O)[C@H]1[C@H](c2ccccc2)C(=O)[C@]2(O)c3ccccc3O[C@@]12c1ccccc1")
-0.0328
>>> datavalue("CCOC(=O)[C@H]1CC=C2C(=O)Oc3ccc(Br)cc3[C@@H]21")
-2.35
